Data origin: patent US11261201B2

- Test system: E. coli
- assay_method_text: Gram negative MIC protocol (OD600, LB, 24 h)
- condition_details: Escherichia coli, read-out: MIC E. coli delta-TolC LB Media, E. coli delta-TolC, LB media, OD600
Provide the recorded MIC for the entries that follow.

// batch mode: one MIC value per listed entry
1. OC1CCCCC1CCNCc1ccccc1 (stereo not shown)
2. CC(Cc1ccn(C(C)C)n1)NCc1ccccc1 (stereo not shown)
3. C1=C(CNCc2ccccc2)CCCC1
4. COc1cc(CC(C)NCc2ccccc2)ncn1 (stereo not shown)
5. O=C1Cc2ccccc2CN1CCC1CCOCC1
6. C1=C(CC2CCCCN2Cc2ccccc2)CCCC1 (stereo not shown)
7. c1ccc(CNC[C@@H]2C[C@H]2c2ccccc2)cc1

1. > 300 µM
2. > 150 µM
3. > 150 µM
4. > 150 µM
5. > 150 µM
6. 300 µM
7. > 150 µM

###

- Test system: E. coli
- assay_method_text: Gram negative MIC protocol (OD600, LB, 24 h)
- condition_details: Escherichia coli, read-out: MIC E. coli delta-TolC LB Media, E. coli delta-TolC, LB media, OD600
Where a name gives a salt, the structure may show the parent alone.
Provide the recorded MIC for the entries that follow.

// batch mode: one MIC value per listed entry
1. C1=C(CC2CCCN2Cc2ccccc2)CCCC1 (stereo not drawn)
2. c1ccc(CNCC2C3CCc4ccccc4C32)cc1 (stereo not drawn)
3. OC(CNCc1ccccc1)C1CCCCC1 (stereo not drawn)
4. CC(CN1Cc2ccccc2CC1=O)C1CCCCC1 (stereo not drawn)
5. CC(NCc1ccccc1)C1C(C)(C)C1(C)C (stereo not drawn)

> 300 µM
> 150 µM
96 µM
55 µM
> 150 µM

// batch mode: one MIC value per listed entry
1. COc1ccc2c(c1)CCCC2CNCc1ccccc1 (stereo not drawn)
2. CC(CC1CCCCC1)NCc1cccc2ccn(CCO)c12 (stereo not drawn) [B442, hydrochloride]

> 150 µM
150 µM

// batch mode: one MIC value per listed entry
1. COC(=O)Cc1cccc(CNCCC2CCCCC2)c1
2. Fc1ccc(CNCCC2=CCCCC2)cc1
3. C1=C(CCNCCc2ccccc2)CCCC1
4. CC(CC1CCOCC1)NCc1ccccc1 (stereo not drawn)
5. c1ccc(CNCCC2CCOCC2)cc1

1. > 150 µM
2. > 150 µM
3. > 150 µM
4. > 150 µM
5. > 150 µM

###

- Test system: E. coli
- assay_method_text: Gram negative MIC protocol (OD600, LB, 24 h)
- condition_details: Escherichia coli, read-out: MIC E. coli delta-TolC LB Media, E. coli delta-TolC, LB media, OD600
Counter-ions that a name gives are not always drawn.
measured_quantity: MIC

Below are worked cases with known answers.
{"columns": ["compound", "MIC"],
 "data": [
  ["CCC(CC1CCCCC1)NCc1ccccc1 (stereo not drawn) [B164, N-benzyl-1-cyclohexylbutan-2-amine]", "60 µM"],
  ["C[C@@H](NCc1ccccc1)C12CC3CC(CC(C3)C1)C2 [B196]", "300 µM"],
  ["c1ccc(CNC(CC2CCCCC2)c2ccccc2)cc1 (stereo not drawn) [B169, hydrochloride]", "74 µM"],
  ["Cc1cccc(COc2ccccc2CNC(C)CC2CCCCC2)c1 (stereo not drawn) [B461]", "< 1 µM"],
  ["CC(Cc1cccc(C(F)(F)F)c1)NCc1ccccc1 (stereo not drawn) [B81]", "> 150 µM"],
  ["c1ccc(CNCC2CCCC2)cc1 [B141]", "> 150 µM"],
  ["c1ccc(CNC2CCC2c2ccccc2)cc1 (stereo not drawn) [B176]", "> 300 µM"],
  ["OC1(CCNCc2ccccc2)CC2CCC1C2 (stereo not drawn) [B60]", "> 150 µM"],
  ["COC1CCCCC1CCNCc1ccccc1 (stereo not drawn) [B190]", "> 300 µM"],
  ["COc1ccc(CC(C)(C)NCc2ccccc2)cc1 [B50]", "> 150 µM"]
]}

// batch mode: one MIC value per listed entry
1. CC(NCc1ccccc1)C1CCCCC1 (stereo not drawn) [B134]
2. CC1(CNCc2ccccc2)CCCCCC1 [B100]
3. CC(CC1CCCCC1)NCc1cccc2ccn(Cc3ccccc3)c12 (stereo not drawn) [B423]
4. c1ccc(CNCCc2cccc3cccnc23)cc1 [B42]
5. c1ccc(CNCCC2COc3ccccc3O2)cc1 (stereo not drawn) [B46]
6. OB1OCc2ccc(CNCc3ccccc3)cc21 [B158]
7. CC(Cc1ccccn1)NCc1ccccc1 (stereo not drawn) [B75]
8. OCC(CC1CCCCC1)NCc1ccccc1 (stereo not drawn) [B168, 2-(benzylamino)-3-cyclohexylpropan-1-ol]

1: > 150 µM; 2: > 150 µM; 3: 55 µM; 4: > 150 µM; 5: > 150 µM; 6: > 150 µM; 7: > 150 µM; 8: 182 µM
